# Assay Info: Thermodynamic solubility
# Format: physicochemical
# Experimental Parameters: pH 1.2; read-out: Thermodynamic solubility at pH 1.2
Endpoint Label: solubility thermodynamic (µM)
Please respond with the number in µM and leave the unit unwritten.

If you can, please state the reported solubility thermodynamic value of CC(F)(F)CN1C(=O)[C@]2(C)COCCN2c2nc(-c3ccc(NC(=O)NC4CC4)cc3)ncc21 .
340

Next:
Entry C[C@@]12COCCN1c1nc(-c3cccc4[nH]ccc34)ncc1N([C@H]1CC[C@H](O)CC1)C2=O [14c] has what solubility thermodynamic?
3960

---

# Tested on: pAKT-S473 in PC-3 cells (TORC2)
# Assay Info: Cellular p-AKT (ser473) AlphaScreen assay in PC-3 cells (TORC2 activity)
# Assay type: cell-based, human
# Experimental Parameters: Homo sapiens, PC-3, PC-3 cell line; read-out: pAKT S473 Cell IC50
# maps each entry to its IC50
// note: answer is a bare numeric in nM

Sample answers from the record:
Reported IC50, molecule C[C@@]12COCCN1c1nc(-c3cnc4[nH]ccc4c3)ncc1N(CCCO)C2=O [13c] : ____
170

Can you handle C[C@@]12COCCN1c1nc(-c3cnc4[nH]ccc4c3)ncc1N(CC1CC1)C2=O next?
51

# evaluate next
What IC50 value was documented for this molecule, C[C@@]12COCCN1c1nc(-c3cccc4[nH]ccc34)ncc1N([C@H]1CC[C@@H](O)CC1)C2=O [14b] ?
14
